Hello, the source for this data is patent US20080226630A1, in case you need it.

Exercise: state measured kon for each of the binders provided.
# system.tested: RSV protein F (recombinant or purified F protein) (human respiratory syncytial virus, …)
# test: SPR Biacore 3000, Fab over amine-coupled recombinant protein F
Give bare numbers, in M⁻¹ s⁻¹.

Field: kon. Fill in for each record below.
1. Fab fragment of antibody 831 (Fab, V domains shown, also called Fab clone 831) VH: QVQLVQSGAEVKKPGASVKVSCKASANIFTYAMHWVRQAPGQRLEWMGWINVGNGQTKYSQRFQGRVTITRDTSATTAYMELSTLRSEDTAVYYCARRASQYGEVYGNYFDYWGQGTLVTVSS VL: DIQMTQSPSTLSASVGDRLTITCRASQNIYNWLAWYQQKPGKAPKLLIYDASTLESGVPSRFSGSGSGTEFTLTISSLQPDDFATYYCQQYNSLSPTFGQGTKVEIKR
2. Fab fragment of antibody 818 (Fab, V domains shown) VH: QVTLRESGPAVVKPTETLTLTCAFSGFSLNAGRVGVSWIRQPPGQAPEWLARIDWDDDKAFRTSLKTRLSISKDSSKNQVVLTLSNMDPADTATYYCARTQVFASGGYYLYYLDHWGQGTLVTVSS VL: DIQMTQSPSSLSASVGDRVTITCRASQTIASYVNWYQQKPGRAPSLLIYAASNLQSGVPPRFSGSGSGTDFTLTISGLQPDDFATYYCQQSYSYRALTFGGGTKVEIKR
3. Fab fragment of antibody 819 (Fab, V domains shown) VH: QVQLQESGPGLVKPSQTLSLTCTVSSGAISGADYYWSWIRQPPGKGLEWVGFIYDSGSTYYNPSLRSRVTISIDTSKKQFSLKLTSVTAADTAVYYCARDLGYGGNSYSHSYYYGLDVWGRGTTVTVSS VL: EIVLTQSPATLSLSPGERATLSCRASQSVSSSLAWYQQTPGQAPRLLIYDASYRVTGIPARFSGSGSGIDFTLTISSLEPEDFAVYYCQQRSNWPPGLTFGGGTKVEIKR
4. Fab fragment of antibody 810 (Fab, V domains shown, also called Fab clone 810) VH: QVQLVQSGAEVKKSGSSVKVSCRASGGTFGNYAINWVRQAPGQGLEWVGRIIPVFDTTNYAQKFQGRVTITADRSTNTAIMQLSSLRPQDTAMYYCLRGSTRGWDTDGFDIWGQGTMVTVSS VL: NIQMTQSPSAMSASVGDRVTITCRASQGISNYLVWFQQKPGKVPKRLIYAASSLQSGVPSRFSGSGSGTEFTLTISSLQPEDFATYYCLQHNISPYTFGQGTKLETKR

1: 372000; 2: 192000; 3: 356000; 4: 1.74e+06
